test.name: Pharmacokinetics of indiplon after oral administration of free base or HBr co-crystal suspension
Format: in vivo, male beagle dogs
stated.conditions: male, beagle, dog, plasma, po, 5 mg/kg, male dogs; single oral dose 5 mg free base/kg; 0.5% methylcellulose suspension; dog CTZBCG; read-out: Cmax
measurement.label: Cmax (ng/mL)

>>> print(df.to_string())
                                smiles_repr  test_result
0  CC(=O)N(C)c1cccc(-c2ccnc3c(C(=O)c4cccs4)cnn23)c1          513

###

test.name: Plasma pharmacokinetic comparison of zaleplon free base and HCl salt after single oral doses
Format: in vivo
stated.conditions: male, beagle, dog, plasma, po, 2.5 mg HCl Salt/kg, male beagle dogs; single oral dose 2.5 mg HCl Salt/kg; dog TKR-2
measurement.label: AUC(0-t) (ng·h/mL)

>>> df
                                   compound  test_result
0  CCN(C(C)=O)c1cccc(-c2ccnc3c(C#N)cnn23)c1.Cl [zaleplon HCl, Zaleplon Hydrochloride]         3720

Each recorded value in this set is attributed to patent US20080045547A1.
